Source: ChEMBL document CHEMBL5523684

Target: Histone deacetylase 1 (Homo sapiens, UniProt Q13547)
Sequence (Q13547 whole entry): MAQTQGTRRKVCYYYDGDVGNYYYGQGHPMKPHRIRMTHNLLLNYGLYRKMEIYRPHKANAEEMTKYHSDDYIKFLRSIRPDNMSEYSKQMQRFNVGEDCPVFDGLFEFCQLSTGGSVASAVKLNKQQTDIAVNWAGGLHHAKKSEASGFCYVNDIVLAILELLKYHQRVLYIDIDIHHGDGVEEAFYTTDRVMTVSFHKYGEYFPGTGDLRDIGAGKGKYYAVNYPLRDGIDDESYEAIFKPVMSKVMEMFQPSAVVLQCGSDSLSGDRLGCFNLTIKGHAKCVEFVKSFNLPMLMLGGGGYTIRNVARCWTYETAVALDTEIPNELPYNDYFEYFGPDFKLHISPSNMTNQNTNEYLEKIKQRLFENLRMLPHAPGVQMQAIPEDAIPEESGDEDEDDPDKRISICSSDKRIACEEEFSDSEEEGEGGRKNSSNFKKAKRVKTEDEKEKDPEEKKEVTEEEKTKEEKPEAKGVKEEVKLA
Test: Inhibition of his-tagged human recombinant HDAC1 using fluor de lys-SIRT1 as substrate incubated for 60 mins by fluorescence based analysis
property.label: pIC50
Give bare numbers, as −log10 of the molar value.

Some solved entries appear below for comparison.
molecule | pIC50
CC1(C)CC(=O)c2c(n(Cc3ccc(C(=O)NO)cc3)c3ccccc23)C1 | 5.38
CC1CN(CC2CCc3c(c4ccccc4n3Cc3ccc(C(=O)NO)cc3)C2=O)CC(C)O1 (stereo not drawn) | 6.06

API: the following record is the query input.
Please fill in: pIC50 reported for "Cc1cn(Cc2ccc(C(=O)NO)cc2)c2c1C(=O)CCC2" = 5.95

---

Test: Half life in mouse at 50 mg/kg, po
Type: ADME, organism-based
Settings: in vivo
property.label: half-life (h)
Give bare numbers, in h.

Please fill in: half-life reported for "CC1(C)CC(=O)c2c(C(F)(F)F)nn(Cc3ccc(C(=O)NO)cc3)c2C1" = 1.39

---

Molecular target: Protein deacetylase HDAC6 (Homo sapiens)
Sequence (Q9UBN7 whole entry, the tested form may be a part): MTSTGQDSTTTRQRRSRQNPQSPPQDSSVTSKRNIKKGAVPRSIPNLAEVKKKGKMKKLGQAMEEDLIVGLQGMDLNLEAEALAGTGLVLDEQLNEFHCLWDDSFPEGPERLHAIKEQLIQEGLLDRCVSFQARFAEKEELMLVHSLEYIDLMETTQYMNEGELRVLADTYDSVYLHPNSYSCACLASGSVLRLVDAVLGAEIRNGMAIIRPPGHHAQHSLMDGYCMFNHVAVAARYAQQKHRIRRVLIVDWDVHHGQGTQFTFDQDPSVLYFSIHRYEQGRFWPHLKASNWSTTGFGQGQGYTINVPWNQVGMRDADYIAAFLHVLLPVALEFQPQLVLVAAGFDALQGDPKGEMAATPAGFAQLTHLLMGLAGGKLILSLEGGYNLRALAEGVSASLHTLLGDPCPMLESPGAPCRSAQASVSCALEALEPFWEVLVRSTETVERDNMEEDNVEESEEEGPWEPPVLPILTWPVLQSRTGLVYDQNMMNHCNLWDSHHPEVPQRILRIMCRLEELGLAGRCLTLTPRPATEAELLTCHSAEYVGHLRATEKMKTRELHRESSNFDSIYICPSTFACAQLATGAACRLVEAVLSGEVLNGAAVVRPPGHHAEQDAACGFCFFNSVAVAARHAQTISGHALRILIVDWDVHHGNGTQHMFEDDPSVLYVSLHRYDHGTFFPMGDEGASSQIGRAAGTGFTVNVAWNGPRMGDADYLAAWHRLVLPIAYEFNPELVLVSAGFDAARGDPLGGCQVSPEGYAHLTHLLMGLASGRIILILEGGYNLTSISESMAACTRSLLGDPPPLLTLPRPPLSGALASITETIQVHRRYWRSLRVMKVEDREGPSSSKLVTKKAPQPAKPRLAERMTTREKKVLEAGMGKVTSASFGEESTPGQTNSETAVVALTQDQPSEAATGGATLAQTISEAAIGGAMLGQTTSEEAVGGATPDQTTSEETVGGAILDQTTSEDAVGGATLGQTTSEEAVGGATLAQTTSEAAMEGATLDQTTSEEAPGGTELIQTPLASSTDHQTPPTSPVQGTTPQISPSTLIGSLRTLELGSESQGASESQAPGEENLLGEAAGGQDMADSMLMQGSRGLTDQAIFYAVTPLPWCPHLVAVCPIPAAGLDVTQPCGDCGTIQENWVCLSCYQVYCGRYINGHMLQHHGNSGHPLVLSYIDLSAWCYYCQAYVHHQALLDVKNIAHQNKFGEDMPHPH
Experiment: Inhibition of human recombinant HDAC6 using fluorescent peptide p53 (379 to 382 residues) RHKK(Ac) as substrate by fluorescence based analysis
For each of the molecules below, state its IC50.
One number for each entry, in nM.

molecule | target.or.system | value.units | observed.value
O=C(NO)c1ccc(Cn2c3c(c4ccccc42)C(=O)CCC3)cc1 | Protein deacetylase HDAC6 (Homo sapiens) | nM | 35

API: the following record is the query input.
Please fill in: IC50 reported for CN1CCN(CC2CCc3c(c4cc(F)ccc4n3Cc3ccc(C(=O)NO)cc3)C2=O)CC1 (configuration not stated) = 4

---

Experiment: AUClast in dog at 0.5 mg/kg, iv
Type: ADME, organism-based, Canis lupus familiaris
Conditions: in vivo
property.label: AUC(0-t)

Please fill in: AUC(0-t) reported for "CC1(C)CC(=O)c2c(C(F)(F)F)nn(Cc3ccc(C(=O)NO)cc3)c2C1" = 0.446 µg·h/mL

---

Assay: Half life in dog at 5 mg/kg, po
Format: ADME, organism-based, Canis lupus familiaris
Conditions: in vivo
property.label: half-life (h)
Answers are plain numbers, in h.

Please fill in: half-life reported for "CC1(C)CC(=O)c2c(C(F)(F)F)nn(Cc3ccc(C(=O)NO)cc3)c2C1" = 1.4

---

Experiment: AUClast in dog at 5 mg/kg, po
Type: ADME, organism-based, Canis lupus familiaris
Settings: in vivo
property.label: AUC(0-t) (ng·h/mL)
One number for each entry, in ng·h/mL.

Please fill in: AUC(0-t) reported for "CC1(C)CC(=O)c2c(C(F)(F)F)nn(Cc3ccc(C(=O)NO)cc3)c2C1" = 1090

---

Biological target: Histone deacetylase 9 (Homo sapiens, UniProt Q9UKV0)
Sequence (Q9UKV0 whole entry): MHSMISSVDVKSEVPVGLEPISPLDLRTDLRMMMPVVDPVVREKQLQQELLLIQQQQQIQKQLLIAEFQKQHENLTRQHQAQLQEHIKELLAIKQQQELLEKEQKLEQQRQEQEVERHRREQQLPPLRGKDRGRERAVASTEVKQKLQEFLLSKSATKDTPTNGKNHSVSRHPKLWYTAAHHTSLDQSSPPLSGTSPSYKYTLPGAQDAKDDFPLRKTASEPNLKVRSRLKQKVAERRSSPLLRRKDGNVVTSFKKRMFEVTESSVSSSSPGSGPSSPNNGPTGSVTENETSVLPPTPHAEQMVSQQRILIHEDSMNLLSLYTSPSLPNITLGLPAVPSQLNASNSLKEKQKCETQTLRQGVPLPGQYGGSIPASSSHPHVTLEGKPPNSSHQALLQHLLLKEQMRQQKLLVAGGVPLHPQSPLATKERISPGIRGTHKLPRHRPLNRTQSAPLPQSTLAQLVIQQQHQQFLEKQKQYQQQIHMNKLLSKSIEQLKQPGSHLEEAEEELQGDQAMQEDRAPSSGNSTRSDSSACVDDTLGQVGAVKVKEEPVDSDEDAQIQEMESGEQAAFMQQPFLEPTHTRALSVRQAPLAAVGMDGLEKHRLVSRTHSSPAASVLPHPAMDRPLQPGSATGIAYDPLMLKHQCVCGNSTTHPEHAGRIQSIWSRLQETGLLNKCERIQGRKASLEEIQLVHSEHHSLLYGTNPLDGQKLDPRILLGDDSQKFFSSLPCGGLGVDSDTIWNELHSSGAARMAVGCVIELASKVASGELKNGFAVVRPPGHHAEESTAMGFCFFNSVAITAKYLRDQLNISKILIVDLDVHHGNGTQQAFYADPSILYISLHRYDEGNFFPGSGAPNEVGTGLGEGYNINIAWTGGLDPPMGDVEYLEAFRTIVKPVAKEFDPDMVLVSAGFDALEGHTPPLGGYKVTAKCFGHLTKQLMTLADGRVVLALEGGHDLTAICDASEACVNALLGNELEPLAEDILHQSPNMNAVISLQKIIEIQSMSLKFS
Test: Inhibition of human recombinant HDAC9 using Boc-Lys(tri-fluoroacetyl)-AMC as substrate by fluorescence based analysis
property.label: IC50

Please fill in: IC50 reported for "O=C(NO)c1ccc(Cn2c3c(c4ccccc42)C(=O)CCC3)cc1" = > 20 µM

---

Test: Cmax in dog at 5 mg/kg, po
Format: ADME, organism-based, Canis lupus familiaris
Settings: in vivo
property.label: Cmax (ng/mL)
One number for each entry, in ng/mL.

Please fill in: Cmax reported for "CC1(C)CC(=O)c2c(C(F)(F)F)nn(Cc3ccc(C(=O)NO)cc3)c2C1" = 1030
